B1: HDV Ribozyme (parent)
chain: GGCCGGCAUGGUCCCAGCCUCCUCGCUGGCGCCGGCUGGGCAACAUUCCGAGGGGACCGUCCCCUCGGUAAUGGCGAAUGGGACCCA

Variants of: B1
ASSAY COMMENT: self-cleavage, relative activity (ratio to wild type); higher = more cleavage; co-transcriptional
self-cleavage reference

{"columns": ["MUTATION ID", "self-cleavage"],
 "data": [
  ["C32G G50C", 0.262],
  ["C57U U79G", 0.73],
  ["C13G C57G", 0.107],
  ["C4G G38U", 0.0287],
  ["C13A C24A", 0],
  ["G1A C21U", 0.121],
  ["A56U C62A", 1.05],
  ["A43C C66G", 0.364],
  ["G39C A43C", 0.138],
  ["G6U G25A", 0.169],
  ["U23C C85A", 1.01],
  ["G1U C36G", 0.306],
  ["U20A C21U", 0.0898],
  ["G35C", 0.254],
  ["C22G C86G", 0.0779],
  ["A45C U46C", 0.403],
  ["A8G U12A", 0],
  ["C26G C32G", 0.203],
  ["C58U G82A", 0.906],
  ["A43U", 0.546],
  ["U9A C13A", 0.119],
  ["C48U G82U", 0.437],
  ["A78U G81U", 0.269],
  ["U47C U65C", 0.733],
  ["G50A G54A", 0.726],
  ["C62U G82U", 0.402],
  ["U9G U65C", 1.17],
  ["C4U G31C", 0.0339],
  ["C48U A56U", 0.987],
  ["G11U G81A", 0.0623],
  ["A70C U79A", 0.72],
  ["U12C A83U", 0.128],
  ["U72A G74C", 0.339],
  ["C33U A45G", 0.886],
  ["U9C G40A", 0.997],
  ["G59U U65A", 0.912],
  ["C3G G34U", 0.323],
  ["C4G G76C", 0.494],
  ["C62U C64A", 0.845],
  ["G54C A77U", 0.695],
  ["C32G G68U", 0.089],
  ["C13A G39A", 0.121],
  ["C58U G82C", 0.386],
  ["G35A U37A", 0.0898],
  ["C4U A77G", 0.578],
  ["C32A G54A", 0.212]
]}

Numbers sourced from the RNAGym collection of RNA variant scans (doi:10.7554/elife.80360).
